Consider the following binders; for each one, report its Proportion of B lymphocytes in splenocytes (%), in vivo in mice.
study_target: extracellular domain of human BLyS protein (hBLyS-ECD), His-tagged, Ala134-Leu285 (human, UniProt Q9Y275 134-285)
Sequence (Q9Y275 134-285): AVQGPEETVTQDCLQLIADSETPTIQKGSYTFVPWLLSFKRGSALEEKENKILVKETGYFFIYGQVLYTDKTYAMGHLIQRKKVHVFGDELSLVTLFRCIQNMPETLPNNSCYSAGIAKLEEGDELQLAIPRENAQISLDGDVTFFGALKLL
run_description: cell-based or functional assay
Give bare numbers, in %.

Take each entry in turn and give its Proportion of B lymphocytes in splenocytes (%), in vivo in mice.
1. c111D10D6G3 (antibody, V domains shown) VH: QVQLQQPGAELVKPGASVKMSCKASGYTFTRHWITWVKQRPGQGLEWIGDIFPGSGSINYNEKFKSEATLTVEKSSSTAYMQLSSLTSEDSAVYYCARGDVDVWGTGTTVTVSS VL: DIQMTQSPSSLSASLGERVSLTCRASQEIRGYLSWLQQKPNGTIKRLIYAASTLDSGVPKRFSATRSGSDFSLTISSLESEDFADYYCLQYASYPFTFGSGTKLEIK
2. c93C6F10D3 (antibody, V domains shown) VH: EVQLVESGGGLVTPGGSLKLSCVASGFAFSTYGMSWVRQTPERRLEWVAYISGGGGSIYYPDSVKGRFTISRDNAKNILYLQMSSLKSEDTAMYHCTRHPDLLLRYDYALDHWGQGTSVTVSS VL: DIQMTQSPASLSASVGETVTITCRASENIHIYLAWYQQKQGKSPQLLVYNGKTLADGVPSRFSGSGSGTQYSLKINTLQPEDFGNYYCQHFWNSTWTFGGGTKLEIK
3. L1D12 (antibody, V domains shown) VH: QVQLVQSGGGLVQPGGSLRLSCAASGFTVSSNYMSWVRQAPGKGLEWVSVIYSGGSTYYADSVKGRFTISRDNSKNTLYLQMNSLRAEDTAVYYCARGFHDILTGYGMDVWGQGTTVTVSS VL: SSELTQDPAVSVALGQTVRITCQGDSLRNYYAGWYQQKPGQAPVLVIYGKNNRPSGIPDRFSGSSSGNTASLTITGTQAEDEADYYCSSRDNSGTHLVEFGGGTKLTVL

1: 33.2; 2: 27.1; 3: 26.8
